target: ZDHHC7 (Mus musculus, UniProt Q91WU6); assay: ZDHHC7 Acyl-cLIP assay (end-point method); settings: IC50 (μM) ZDHHC7 (Acyl-cLIP), 30-minute pre-incubation with inhibitor; FAM-KRas4a peptide substrate

>  <molecule>
CCCCCCCCCCCCCCC(Br)C(=O)Nc1ccccc1 [MY-D-3, 2-bromo-N-phenylhexadecanamide]

>  <qual>
>

>  <IC50 (µM)>
150

$$$$
>  <molecule>
CCCCCCCCCCCCCCC(Br)C(=O)SCCNC(C)=O (stereo not drawn)

>  <qual>
=

>  <IC50 (µM)>
4.4

$$$$
>  <molecule>
CCCCCCCCCCCCCCC(Br)C(=O)OC [MY-D-2, methyl 2-bromohexadecanoate]

>  <qual>
=

>  <IC50 (µM)>
38

$$$$

---

Target: ZDHHC7 (Homo sapiens, UniProt Q9NXF8)
Sequence (Q9NXF8 1-308): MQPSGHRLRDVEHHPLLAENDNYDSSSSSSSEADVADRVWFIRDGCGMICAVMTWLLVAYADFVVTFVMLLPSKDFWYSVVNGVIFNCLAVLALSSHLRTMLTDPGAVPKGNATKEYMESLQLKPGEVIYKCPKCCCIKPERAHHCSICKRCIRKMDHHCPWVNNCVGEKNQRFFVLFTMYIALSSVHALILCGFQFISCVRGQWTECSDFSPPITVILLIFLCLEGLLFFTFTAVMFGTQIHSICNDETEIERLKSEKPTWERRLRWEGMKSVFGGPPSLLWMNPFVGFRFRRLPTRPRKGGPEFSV
Assay: STAT3 fatty acylation induced by ZDHHC7 in HEK293T cells (Alk14 labeling, in-gel fluorescence)
measurementType: IC50

>  <compound>
CCCCCCCCCCCCCCC(Br)C(=O)SCCNC(C)=O (stereo not shown)

>  <measuredValue>
1000 to 5000 nM

$$$$

---

target: ZDHHC3 (Mus musculus); construct: FLAG (C); His (C); made in house; host or cells: Sf9 insect cells (baculovirus); assay: ZDHHC3 Acyl-cLIP assay (end-point method); assay type: biochemical
measurementType: IC50

>  <molecule>
CCCCCCCCCCCCCCC(Br)C(=O)SCCNC(C)=O [MY-D-4]

>  <measurementType>
IC50

>  <measuredValue>
~50 µM

$$$$

---

Target: UniProtKB Q91WU6
Sequence (Q91WU6 1-308): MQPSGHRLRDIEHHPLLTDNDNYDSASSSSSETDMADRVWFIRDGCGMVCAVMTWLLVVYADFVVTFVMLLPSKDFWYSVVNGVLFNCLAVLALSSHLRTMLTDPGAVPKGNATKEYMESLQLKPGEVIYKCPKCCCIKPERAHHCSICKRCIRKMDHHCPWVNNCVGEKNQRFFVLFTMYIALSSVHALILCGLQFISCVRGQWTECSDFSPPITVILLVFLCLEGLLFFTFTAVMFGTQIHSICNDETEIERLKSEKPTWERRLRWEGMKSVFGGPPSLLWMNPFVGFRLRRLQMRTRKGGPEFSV
Experiment: ZDHHC7 Acyl-cLIP assay (end-point method)
Conditions: read-out: IC50 ZDHHC7 (Acyl-cLIP) without the pre-incubation; without pre-incubation

>  <molecule>
CCCCCCCCCCCCCCC(Br)C(=O)O (stereo not shown) [2-BP, 2-bromopalmitate, reference compound]

>  <IC50 (µM)>
12

$$$$

---

molecular target: ZDHHC3 (Mus musculus, UniProt Q8R173); construct: FLAG (C); His (C); made in house; host or cells: Sf9 insect cells (baculovirus); assay: ZDHHC3 Acyl-cLIP assay (end-point method); assay type: biochemical; conditions: 30-minute pre-incubation; FAM-KRas4a peptide substrate
Sequence (Q8R173 whole entry): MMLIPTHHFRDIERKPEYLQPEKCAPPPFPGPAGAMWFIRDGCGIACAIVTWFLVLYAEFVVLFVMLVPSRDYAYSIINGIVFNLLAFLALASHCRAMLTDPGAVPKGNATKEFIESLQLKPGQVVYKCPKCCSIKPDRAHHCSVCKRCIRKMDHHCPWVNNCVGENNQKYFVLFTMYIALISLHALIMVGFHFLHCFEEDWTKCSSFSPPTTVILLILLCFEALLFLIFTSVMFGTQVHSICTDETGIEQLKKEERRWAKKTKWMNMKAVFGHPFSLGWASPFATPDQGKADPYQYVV

>  <compound>
CCCCCCCCCCCCCCC(Br)C(=O)O (stereo not shown) [2-BP, 2-bromopalmitate, reference compound]

>  <IC50>
> 250 µM

$$$$
